Let's look at some molecules and their measured IC50.
target: cDNA-expressed human hepatic CYP3A4 (Homo sapiens (Human)); test: Measurement of CYP (IC50 of P450 CYP3A4), BFC substrate; assay type: in vitro ADME; conditions: 20 minutes
Sequence (P08684 whole entry): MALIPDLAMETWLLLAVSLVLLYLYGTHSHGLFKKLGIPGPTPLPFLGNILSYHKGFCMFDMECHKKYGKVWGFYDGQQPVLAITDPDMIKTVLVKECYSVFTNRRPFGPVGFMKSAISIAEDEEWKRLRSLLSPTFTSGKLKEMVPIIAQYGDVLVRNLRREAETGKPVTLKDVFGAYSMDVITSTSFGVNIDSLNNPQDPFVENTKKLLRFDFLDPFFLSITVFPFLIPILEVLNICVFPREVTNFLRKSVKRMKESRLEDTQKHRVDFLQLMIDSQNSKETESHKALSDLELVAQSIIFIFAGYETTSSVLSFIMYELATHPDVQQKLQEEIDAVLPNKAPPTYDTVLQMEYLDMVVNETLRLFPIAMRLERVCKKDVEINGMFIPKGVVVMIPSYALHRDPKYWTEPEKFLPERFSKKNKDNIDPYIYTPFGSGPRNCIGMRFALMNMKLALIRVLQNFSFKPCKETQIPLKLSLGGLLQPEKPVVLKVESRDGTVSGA
Report as a plain number; the unit µM is understood.

Guide cases for IC50, answers given:
C=CCN1CC(=O)N2[C@@H](Cc3ccc(O)cc3)C(=O)N(Cc3cccc4c(-c5ccc(C(=O)Nc6cccc(C(N)=O)c6)cc5)cn(C)c34)C[C@@H]2N1C(=O)NCc1ccccc1 :: 16
C=CCN1CC(=O)N2[C@@H](Cc3ccc(O)cc3)C(=O)N(Cc3cccc4c(-c5ccc(C(=O)N6CCSCC6)cc5)cn(C)c34)C[C@@H]2N1C(=O)NCc1ccccc1 :: 1.76
C=CCN1CC(=O)N2[C@@H](Cc3ccc(O)cc3)C(=O)N(Cc3cccc4c(C(=O)Nc5ccc(OCCOC)nc5)cn(C)c34)C[C@@H]2N1C(=O)NCc1ccccc1 :: 7.62
C=CCN1CC(=O)N2[C@@H](Cc3ccc(O)cc3)C(=O)N(Cc3cccc4c(C(=O)N(C)CC5(CO)CC5)cn(C)c34)C[C@@H]2N1C(=O)NCc1ccccc1 :: 2.53

What IC50 appears in the records for this molecule with cDNA-expressed human hepatic CYP3A4 (Homo sapiens (Human))? "C=CCN1CC(=O)N2[C@@H](Cc3ccc(O)cc3)C(=O)N(Cc3cccc4c(C(=O)Nc5ccc(OC(C)(C)C)cc5)cn(C)c34)C[C@@H]2N1C(=O)NCc1ccccc1"
19.1
